# assay: yeast display, Sf9 membrane polyspecificity reagent, FACS + sequencing; frameworks hold sequencing errors
assay metric: polyreactivity (PSR sort gate)

Worked examples, 4 sequences total:
residue string	polyreactivity (PSR sort gate)
QVQLVESGGGLVQAGGSLRLSCAASGFTFSYYAMGWYRQAPGKERELVAAITSGGSTYYADYVKGRFTISRDNAKNTVYLQMNRLKPEDTAVYYCNADGWYYPTDDYWGQGTQVTVSS	low polyreactivity
QVQLVESGGGLVQAGGSLRLSCAASGSTFYYNVMGWYRQAPGKERELVAAITLSGGSTYADSVKGRFTISRDNAKNTVYLQMNSLKPEDTAVYYCAKKGRYGRWGYKFDYWGQGTQVTVSS	low polyreactivity
QVQLVESGGGLVQAGGSLRLSCAASGSTFSYYAMGWYRQAPGKERELVAAIRSDGGSTYYADSVKGRFTISRDNAKNTVYLQMNSLKPEDTAVYYCNAPYRRSAKFRRYGYDYWGQGTQVTVSS	high polyreactivity
QVQLVESGGVLVQAGGSLRLSCAASGRTFLYNAMGWYRQAPGKERELVAAISSRGARTYYADSVKGRFTISRDNAKKTVYLQMNSLKPEDTAVYYCAASYTTAYYRYDYWGQGTQVTVSS	high polyreactivity

API: the following record is the query input.
Ask: Item under review: `QVQLVESGGGLVQAGGSLRLSCAASGSTSTRNAMGWYRPAPGKERELVAAITSGGNTYYADSVKGRFTISRDNAKNTVYLQMNSLKPEDTAVYYCAAASPGPWRYDYWGQGTQVTVSS` . Reported polyreactivity (PSR sort gate)?
Result: high polyreactivity

meta.source: the nanobody polyreactivity screen of Harvey et al. (2022)
